B1: SLC35F2 (parent)
chain: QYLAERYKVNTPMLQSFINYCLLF

Variants of: B1
assay-info: protein stability index of a GFP-peptide fusion (GPS, HEK-293T) (PSI 1-6); higher = more stable;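 note: lentivirally expressed fusions sorted by FACS into six bins by GFP to DsRed ratio, PSI derived from sequencing read proportions per bin multiplied by bin number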
conditions-used: c terminus: a fixed tail appended
Quick reference for protein stability index among some variants
Give your answer as a number; write no unit.

Previously resolved entries follow.
- sequence-entry: "QYLAERYKVNTPMLQSFINYCDLF [L22D]"
  protein stability index: 2.05
- sequence-entry: "QYLAERYKVNTPMLQSFINYCGLF [L22G]"
  protein stability index: 2.23
- sequence-entry: "QYLAERYTVNTPMLQSFINYCLLF [K8T]"
  protein stability index: 2.43
- sequence-entry: "QYLAERYKVNTPMDQSFINYCLLF [L14D]"
  protein stability index: 2.82
- sequence-entry: "QYLAERYKVNRPMLQSFINYCLLF [T11R]"
  protein stability index: 2.57

Suppose we examine the variant QYLAERYKVNTPMLQSFINYCSLF [L22S] ; what protein stability index value has been reported? 2.21

Suppose we examine the variant QYLAERYKVNTPMLQSFINYHLLF [C21H] ; what protein stability index value has been reported? 2.29

Suppose we examine the variant QYLAERYKVNTPMHQSFINYCLLF [L14H] ; what protein stability index value has been reported? 2.11

Suppose we examine the variant QYLAERYKVGTPMLQSFINYCLLF [N10G] ; what protein stability index value has been reported? 2.54

Suppose we examine the variant QYLLERYKVNTPMLQSFINYCLLF [A4L] ; what protein stability index value has been reported? 3.42

Suppose we examine the variant QYLAERYKVNTPMLMSFINYCLLF [Q15M] ; what protein stability index value has been reported? 2.15

Suppose we examine the variant QGLAERYKVNTPMLQSFINYCLLF [Y2G] ; what protein stability index value has been reported? 2.52

Suppose we examine the variant QYLAERYKVNYPMLQSFINYCLLF [T11Y] ; what protein stability index value has been reported? 3.51

Suppose we examine the variant QYLAERYKVNTPMLQSFINYCHLF [L22H] ; what protein stability index value has been reported? 3.33

Suppose we examine the variant QYLAERYKVNTPLLQSFINYCLLF [M13L] ; what protein stability index value has been reported? 1.83

Suppose we examine the variant QYLAERYKVNTPMLQRFINYCLLF [S16R] ; what protein stability index value has been reported? 2.63

Suppose we examine the variant QYLAERYKVNTPMLQSFINYCLLG [F24G] ; what protein stability index value has been reported? 2.48

Suppose we examine the variant QYLAERYKVNTPMLQSFINYCLCF [L23C] ; what protein stability index value has been reported? 1.69

Suppose we examine the variant QYLAERYKVATPMLQSFINYCLLF [N10A] ; what protein stability index value has been reported? 2.09

Suppose we examine the variant QNLAERYKVNTPMLQSFINYCLLF [Y2N] ; what protein stability index value has been reported? 2.61

Suppose we examine the variant QYLAERYKVNTPMTQSFINYCLLF [L14T] ; what protein stability index value has been reported? 2.65

Suppose we examine the variant QYLAERYKVNNPMLQSFINYCLLF [T11N] ; what protein stability index value has been reported? 2.71

Suppose we examine the variant QMLAERYKVNTPMLQSFINYCLLF [Y2M] ; what protein stability index value has been reported? 1.24

Suppose we examine the variant QYLAERFKVNTPMLQSFINYCLLF [Y7F] ; what protein stability index value has been reported? 2.18

Suppose we examine the variant QYLAERYKVNTPMLQSFCNYCLLF [I18C] ; what protein stability index value has been reported? 3.62

Suppose we examine the variant QYLAERYKVNTPMLQSNINYCLLF [F17N] ; what protein stability index value has been reported? 2.12

Suppose we examine the variant LYLAERYKVNTPMLQSFINYCLLF [Q1L] ; what protein stability index value has been reported? 2.23

Suppose we examine the variant QYLAERYKVNTPMSQSFINYCLLF [L14S] ; what protein stability index value has been reported? 1.87

Suppose we examine the variant QYLAERYKVNTPMPQSFINYCLLF [L14P] ; what protein stability index value has been reported? 2.12

Suppose we examine the variant QYLAERYKVNTPMLQSFINYNLLF [C21N] ; what protein stability index value has been reported? 2.96
